Hey, just so you know, these numbers are from BindingDB's records for doi:10.1016/j.bmcl.2007.01.077.

Molecular target: Signal transducer and activator of transcription 3 (Mus musculus)
Sequence (P42227 whole entry): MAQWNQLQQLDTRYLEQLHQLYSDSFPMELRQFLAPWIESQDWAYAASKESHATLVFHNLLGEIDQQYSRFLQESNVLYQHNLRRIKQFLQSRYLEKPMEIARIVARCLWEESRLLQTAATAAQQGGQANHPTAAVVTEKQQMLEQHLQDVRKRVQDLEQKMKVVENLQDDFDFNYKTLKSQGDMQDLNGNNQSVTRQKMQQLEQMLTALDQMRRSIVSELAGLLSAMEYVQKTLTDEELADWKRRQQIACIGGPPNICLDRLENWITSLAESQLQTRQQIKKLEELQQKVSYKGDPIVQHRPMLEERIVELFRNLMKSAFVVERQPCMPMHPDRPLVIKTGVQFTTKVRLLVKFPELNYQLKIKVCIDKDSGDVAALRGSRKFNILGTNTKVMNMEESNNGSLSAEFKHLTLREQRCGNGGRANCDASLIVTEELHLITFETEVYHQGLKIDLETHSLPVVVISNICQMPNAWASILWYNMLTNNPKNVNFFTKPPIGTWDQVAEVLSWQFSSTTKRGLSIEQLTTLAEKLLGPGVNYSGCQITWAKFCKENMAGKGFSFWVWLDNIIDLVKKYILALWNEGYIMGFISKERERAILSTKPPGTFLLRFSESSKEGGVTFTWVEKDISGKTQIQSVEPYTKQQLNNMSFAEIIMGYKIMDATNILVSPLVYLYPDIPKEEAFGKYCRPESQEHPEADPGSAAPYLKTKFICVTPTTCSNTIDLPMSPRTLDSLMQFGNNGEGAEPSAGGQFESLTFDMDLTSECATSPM
pIC50: −log10 of the molar value.
REPORTED_PROPERTY: pIC50

* CC(C)C[C@H](NC(=O)[C@H](Cc1ccc(OP(=O)(O)O)cc1)NC(=O)c1ccc(C#N)cc1)C(=O)NC(C)C | 3.12

* * *

Target: Signal transducer and activator of transcription 1-alpha/beta (Homo sapiens, UniProt P42224)
Sequence (P42224 whole entry): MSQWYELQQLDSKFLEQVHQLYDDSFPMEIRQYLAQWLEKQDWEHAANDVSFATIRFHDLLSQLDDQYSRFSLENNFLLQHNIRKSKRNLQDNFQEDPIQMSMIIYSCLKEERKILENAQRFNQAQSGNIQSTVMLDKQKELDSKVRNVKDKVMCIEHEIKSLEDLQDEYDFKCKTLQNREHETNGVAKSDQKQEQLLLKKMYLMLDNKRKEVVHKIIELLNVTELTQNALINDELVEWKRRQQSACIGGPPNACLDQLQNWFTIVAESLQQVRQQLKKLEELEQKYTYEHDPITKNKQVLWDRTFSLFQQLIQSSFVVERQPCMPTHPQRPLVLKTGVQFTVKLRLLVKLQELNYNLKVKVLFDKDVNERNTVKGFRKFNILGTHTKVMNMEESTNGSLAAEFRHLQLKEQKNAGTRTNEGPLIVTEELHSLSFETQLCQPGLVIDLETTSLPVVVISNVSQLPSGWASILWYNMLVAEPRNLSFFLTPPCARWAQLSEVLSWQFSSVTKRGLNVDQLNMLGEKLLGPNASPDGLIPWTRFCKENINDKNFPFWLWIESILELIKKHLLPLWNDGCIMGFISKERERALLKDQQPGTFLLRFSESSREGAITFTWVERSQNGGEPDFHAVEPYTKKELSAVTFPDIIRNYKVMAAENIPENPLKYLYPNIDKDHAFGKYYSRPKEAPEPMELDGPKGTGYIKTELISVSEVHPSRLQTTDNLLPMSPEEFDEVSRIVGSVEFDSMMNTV
pIC50: −log10 of the molar value.
REPORTED_PROPERTY: pIC50

* CC(C)C[C@H](NC(=O)[C@H](Cc1ccc(OP(=O)(O)O)cc1)NC(=O)c1ccc(C#N)cc1)C(=O)NC(C)C | 4.24
